Tested on: C. parapsilosis
test.description: Minimum inhibitory concentration, RPMI medium
Assay type: cell-based
measurement.context: banded MIC grade
I'd appreciate it if you could supply MIC grade, C. PARAPSILOSIS, RPMI media values for the items below.

NC1=NN=C(c2cccc(Cl)c2)CS1    1 (1: ≥20 mg/L)
NC1=NN=C(CCCCCC(=O)O)CS1    1 (1: ≥20 mg/L)

Next compound, please.
So what does the record say about MIC grade, C. PARAPSILOSIS, RPMI media for COC(=O)CC1=NN=C(N)SC1 ? 2 (2: 5-20 mg/L)

====

Test system: C. parapsilosis
test.description: Minimum inhibitory concentration, RPMI medium
Type: cell-based
measurement.context: banded MIC grade
Provide the reported MIC grade, C. PARAPSILOSIS, RPMI media of each item.

Check out these entries, answers already filled in.
NC1=NN=C(CCCCOCc2cccc(C(F)(F)F)c2)CS1    2 (2: 5-20 mg/L)
NC1=NN=C(CCCCOCc2ccc(Cl)cc2)CS1    4 (4: <1 mg/L)
NC1=NN=C(CCCCCOc2ccccc2)CS1    4 (4: <1 mg/L)
CC(C)OCCC1=NN=C(N)SC1    3 (3: 1-5 mg/L)
NC1=NN=C(c2ccc(Cl)c(Cl)c2)CS1    1 (1: ≥20 mg/L)
CCOC(=O)c1cccc(C2=NN=C(N)SC2)c1    1 (1: ≥20 mg/L)
NC1=NN=C(CCCCOCc2ccc(Cl)cc2F)CS1    4 (4: <1 mg/L)
Cc1cccc(C2=NN=C(N)SC2)c1    1 (1: ≥20 mg/L)

Batch lookup, MIC grade, C. PARAPSILOSIS, RPMI media per entry.
1. NC1=NN=C(CCCCc2cc3ccccc3o2)CS1
2. NC1=NN=C(CCCCOCCc2ccccc2)CS1
3. NC1=NN=C2c3ccccc3CCC2S1 (centres unmarked)

4 (4: <1 mg/L)
3 (3: 1-5 mg/L)
1 (1: ≥20 mg/L)

====

Tested on: Aspergillus fumigatus
test.description: Minimum inhibitory concentration, YAG medium
Format: cell-based
measurement.context: banded MIC grade
Hi there, I'd appreciate the recorded MIC grade, A. FUMIGATUS, YAG media for every entry that follows.

// worked examples, MIC grade, A. FUMIGATUS, YAG media included
NC1=NN=C(c2ccc(C3CCCCC3)cc2)CS1    1 (1: ≥5 mg/L)
CCCCCCCC1=CSC(N)=NN1 [5-heptyl-4~{H}-1,3,4-thiadiazin-2-amine]    4 (4: <0.2 mg/L)
COc1ccc(CCCOCCC2=NN=C(N)SC2)cc1    2 (2: 1-5 mg/L)
NC1=NN=C(CCCCOCc2ccc(C(F)(F)F)cc2)CS1    4 (4: <0.2 mg/L)
Cc1cc(C)cc(C2=NN=C(N)SC2)c1    1 (1: ≥5 mg/L)
COc1ccc(COCCCCC2=NN=C(N)SC2)cc1    2 (2: 1-5 mg/L)
COCCCCCC1=CSC(=N)NN1C    3 (3: 0.2-1 mg/L)
NC1=NN=C(CCCCOCc2cccc(Cl)c2)CS1    4 (4: <0.2 mg/L)

Return reported MIC grade, A. FUMIGATUS, YAG media values for all items listed beneath this line.
1. NC1=NN=C(CCCCOCc2ccccc2CCc2ccccc2)CS1
2. CN(CCCCCC1=NN=C(N)SC1)c1ccccc1
3. NC1=NN=C(CCCCOCc2cc(F)ccc2F)CS1
4. NC1=NN=C(CCCCOCc2cccc(C3CC3)c2)CS1
5. NC1=NN=C(CCCCOCc2cccc(-c3ccccc3)c2)CS1

1 (1: ≥5 mg/L)
2 (2: 1-5 mg/L)
4 (4: <0.2 mg/L)
3 (3: 0.2-1 mg/L)
1 (1: ≥5 mg/L)

Provide the reported MIC grade, A. FUMIGATUS, YAG media of each entry below, same order.
1. NC1=NN=C(c2ccc(Cl)cc2)CS1
2. COCCCCCCCC1=NN=C(N)SC1
3. NC1=NN=C(CCCCOCc2ccc(F)cc2)CS1
4. NC1=NN=C(CCCCOCc2ccccc2C2CC2)CS1
5. CC(=O)OCCCCC1=NN=C(N)SC1
6. CCCCC/C=C/C1=NN=C(N)SC1

["3 (3: 0.2-1 mg/L)", "4 (4: <0.2 mg/L)", "2 (2: 1-5 mg/L)", "2 (2: 1-5 mg/L)", "4 (4: <0.2 mg/L)", "2 (2: 1-5 mg/L)"]

Please look at the items below and tell me MIC grade, A. FUMIGATUS, YAG media for each one, in order.
1. NC1=NN=C(CCOC2CCCCC2)CS1
2. CCCCOC(=O)c1ccc(C2=NN=C(N)SC2)cc1
3. COc1cccc(C2=NN=C(N)SC2)c1
4. NC1=NN=C(c2ccc3ccccc3c2)CS1
5. COCC1=NN=C(N)SC1
6. CCCOc1ccc(CCC2=NN=C(N)SC2)cc1
7. NC1=NN=C(CCCCCN2C(=O)c3ccccc3C2=O)CS1

2 (2: 1-5 mg/L)
3 (3: 0.2-1 mg/L)
1 (1: ≥5 mg/L)
2 (2: 1-5 mg/L)
2 (2: 1-5 mg/L)
4 (4: <0.2 mg/L)
4 (4: <0.2 mg/L)

Just for reference, patent US20180201592A1 is where these values come from.
